# systemTested: PXR (Homo sapiens)
# Sequence (O75469 whole entry): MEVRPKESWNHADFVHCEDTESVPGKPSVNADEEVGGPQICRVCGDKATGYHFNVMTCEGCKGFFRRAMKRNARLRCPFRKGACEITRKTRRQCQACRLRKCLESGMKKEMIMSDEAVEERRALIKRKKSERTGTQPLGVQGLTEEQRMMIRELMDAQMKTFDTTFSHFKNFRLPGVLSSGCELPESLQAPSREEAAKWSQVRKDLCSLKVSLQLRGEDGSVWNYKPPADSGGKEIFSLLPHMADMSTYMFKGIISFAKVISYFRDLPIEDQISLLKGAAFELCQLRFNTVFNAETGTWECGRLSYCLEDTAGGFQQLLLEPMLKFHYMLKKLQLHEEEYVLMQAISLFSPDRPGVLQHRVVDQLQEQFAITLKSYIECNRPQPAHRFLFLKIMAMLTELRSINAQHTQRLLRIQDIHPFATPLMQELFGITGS
# assayNotes: Activation of PXR (unknown origin) relative to rifampicin
Friendly reminder: Emax below 40% is YES, at or above is NO.

INSERT INTO results (chemicalsmiles, systemtested, classification) VALUES
  ('Cc1sc(N[C@](Cc2ccccc2)(c2cc(F)cc(OC(F)(F)C(F)F)c2)c2ccc(Cl)cn2)nc1C(F)(F)F', 'PXR (Homo sapiens)', 'NO'),
  ('Fc1cc(OC(F)(F)C(F)F)cc([C@@](Cc2ccccc2)(Nc2nc3c(F)cc(F)cc3[nH]2)c2ccc(Cl)cn2)c1', 'PXR (Homo sapiens)', 'YES'),
  ('Fc1cc(OC(F)(F)C(F)F)cc([C@@](Cc2ccccc2)(Nc2nc3ccccc3[nH]2)c2ccc(Cl)cn2)c1', 'PXR (Homo sapiens)', 'NO'),
  ('O=C(NC1CCCC1)N[C@@](Cc1ccccc1)(c1cc(F)cc(OC(F)(F)C(F)F)c1)c1ccc(Cl)cn1', 'PXR (Homo sapiens)', 'NO'),
  ('Fc1cc(OC(F)(F)C(F)F)cc([C@@](Cc2ccccc2)(Nc2nc(C(F)(F)F)cs2)c2ccc(Cl)cn2)c1', 'PXR (Homo sapiens)', 'NO'),
  ('Fc1cc(OC(F)(F)C(F)F)cc([C@@](Cc2ccccc2)(Nc2nc(C(F)(F)F)c(Br)s2)c2ccc(Cl)cn2)c1', 'PXR (Homo sapiens)', 'YES'),
  ('Fc1cc(OC(F)(F)C(F)F)cc([C@@](Cc2ccccc2)(Nc2nc3cc(F)ccc3[nH]2)c2ccc(Cl)cn2)c1', 'PXR (Homo sapiens)', 'NO');

---

# systemTested: Cholesteryl ester transfer protein (Homo sapiens, UniProt P11597)
# Sequence (P11597 whole entry): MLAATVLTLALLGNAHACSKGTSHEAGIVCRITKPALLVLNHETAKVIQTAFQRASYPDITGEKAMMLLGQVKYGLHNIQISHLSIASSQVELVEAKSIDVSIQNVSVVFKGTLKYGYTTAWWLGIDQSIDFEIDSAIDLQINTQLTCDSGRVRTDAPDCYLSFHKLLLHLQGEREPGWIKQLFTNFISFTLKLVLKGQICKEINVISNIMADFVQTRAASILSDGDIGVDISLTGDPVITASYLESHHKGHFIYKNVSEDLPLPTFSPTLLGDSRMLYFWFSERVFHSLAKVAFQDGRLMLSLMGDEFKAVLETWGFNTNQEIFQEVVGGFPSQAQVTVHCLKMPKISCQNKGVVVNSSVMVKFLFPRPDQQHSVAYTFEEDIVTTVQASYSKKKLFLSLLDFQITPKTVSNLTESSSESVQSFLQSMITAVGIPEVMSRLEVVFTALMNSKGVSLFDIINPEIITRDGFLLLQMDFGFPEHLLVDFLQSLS
# assayNotes: Inhibition of CETP in human whole plasma using [3H]-CE/HDL after 10 mins
readoutKind: IC50 (µM)

INSERT INTO results (compound, readoutkind, valuereported) VALUES
  ('Cc1nc(NC(Cc2ccccc2)(c2cc(F)cc(C(F)(F)F)c2)c2ccc(Cl)cn2)sc1C (racemic)', 'IC50', 29.5),
  ('Fc1cc(C(F)(F)F)cc(C(Cc2ccccc2)(Nc2nc3ccccc3s2)c2ccc(Cl)cn2)c1 (stereo not drawn)', 'IC50', 23),
  ('Fc1cc(C(F)(F)F)cc([C@@](Cc2ccccc2)(Nc2nc3c(s2)CCC3)c2ccc(Cl)cn2)c1', 'IC50', 8.2),
  ('Cc1sc(N[C@](Cc2ccccc2)(c2cc(F)cc(OC(F)(F)C(F)F)c2)c2ccc(Cl)cn2)nc1C(F)(F)F', 'IC50', 3.2),
  ('Fc1cc(OC(F)(F)C(F)F)cc([C@@](Cc2ccccc2)(Nc2nc3c(F)cc(F)cc3[nH]2)c2ccc(Cl)cn2)c1', 'IC50', 6.4),
  ('Cc1nc(N[C@](Cc2ccccc2)(c2cc(F)cc(OC(F)(F)C(F)F)c2)c2ccc(Cl)cn2)sc1C', 'IC50', 5.5),
  ('Cc1nc(N[C@](Cc2ccccc2)(c2cc(F)cc(C(F)(F)F)c2)c2ccc(Cl)cn2)sc1C', 'IC50', 17.3),
  ('Fc1cc(C(F)(F)F)cc(C(Cc2ccccc2)(Nc2nc3c(s2)CCCC3)c2ccc(Cl)cn2)c1 (racemic)', 'IC50', 20.2);

Sourced from ChEMBL document CHEMBL3112495
